# Test system: HBV replication (extracellular virion HBV DNA)
# Assay remarks: HBV virion
# Format: cell-based, hepatitis B virus
# Particulars: Hepatitis B virus, read-out: EC50 (VIR)
pEC50: −log10 of the molar value.
Readout type: pEC50

Query: pEC50 of O=C(Nc1ccc([N+](=O)[O-])cc1Cl)c1cc(Cl)ccc1O [Niclosamide, reference compound] on HBV replication (extracellular virion HBV DNA)?
Reply: < 5.00

Values compiled from paper PMC3124649.
